- TEST TARGET: human thrombopoietin receptor (c-mpl) (Homo sapiens)
- Construct: expressed in transfected cells
- TEST: Stimulation of proliferation of thrombopoietin-dependent cell line UT7/EPO-mpl (WST-8)
- Format: cell-based
- ASSAY SETUP: human leukemic cell line UT-7/EPO-mpl, 4 days incubation, WST-8, relative to 10 ng/mL TPO; read-out: EC50 (concentration that yields a growth rate corresponding to 50% of the growth observed in the presence of 10 ng/mL TPO) (converted)
TEST READOUT: EC50 (nM)

CC1=NN(c2ccc(Cl)c(Cl)c2)C(=O)/C1=C(/C)NNC(=O)c1ccc(C(=O)N2CC(O)C(O)C2)s1 (centres unmarked)    3.9
CC1=NN(c2ccc(C)c(C)c2)C(=O)/C1=C(/C)NNC(=O)c1ccc(C(=O)NN(C)C)s1    6.16
CC1=NN(c2ccc(Cl)c(Cl)c2)C(=O)/C1=C(/C)NNC(=O)c1ccc(C(=O)NCc2ccncc2)s1    4.97
CCN(CC)C(=O)c1ccc(C(=O)NN/C(C)=C2\C(=O)N(c3ccc(C(F)(F)F)cc3)N=C2C)s1    8.28
CC1=NN(c2ccc(C(F)(F)F)cc2)C(=O)/C1=C(/C)NNC(=O)c1ccc(C(=O)NCc2ccncc2)s1    1.59

(P) CC1=NN(c2ccc(C(F)(F)F)cc2)C(=O)/C1=C(/C)NNC(=O)c1ccc(C(=O)NC(C)C)s1
(Q) CC1=NN(c2ccc(C)c(C)c2)C(=O)/C1=C(/C)NNC(=O)c1ccc(C(=O)NCCC(=O)O)s1
Q: Hello, I am sorting some records. Could you say if P or Q has the smaller EC50 value? Give the chosen item's label as your response.
Result: P
(P: 0.871 nM, Q: 8.89 nM)

(A) CC1=NN(c2ccc(Cl)c(Cl)c2)C(=O)/C1=C(/C)NNC(=O)c1ccc(C(=O)N2CCC(N3CCCC3)CC2)s1
(B) CC1=NN(c2ccc(C(C)(C)C)cc2)C(=O)/C1=C(/C)NNC(=O)c1ccc(C(=O)NCc2cccnc2)s1
Q: Which of the two gives a bigger number for EC50: A or B ? Answer format: the label of the selected item.
Result: A
(A: 4.75 nM, B: 0.528 nM)

(a) CC1=NN(c2ccc(Cl)c(Cl)c2)C(=O)/C1=C(/C)NNC(=O)c1ccc(C(=O)NCc2ccccn2)s1
(b) CC1=NN(c2ccc(C(C)(C)C)cc2)C(=O)/C1=C(/C)NNC(=O)c1ccc(C(=O)NN2CCOCC2)s1
(c) COC1CN(C(=O)c2ccc(C(=O)NN/C(C)=C3\C(=O)N(c4ccc(Cl)c(Cl)c4)N=C3C)s2)CC1OC (centres unmarked)
Q: Exam item: list the entries in increasing order of EC50. # list labels per requested ordering
Result: b, a, c
(b: 1.2 nM, a: 5.34 nM, c: 11.3 nM)

(I) CC1=NN(c2ccc(C(C)(C)C)cc2)C(=O)/C1=C(/C)NNC(=O)c1ccc(C(=O)N2CCCC2)s1
(II) CC1=NN(c2ccc(C)c(C)c2)C(=O)/C1=C(/C)NNC(=O)c1ccc(C(=O)NCc2ccccn2)s1
Q: Which record shows the lower EC50: the first, I , or the second, II ? Choose, then provide that item's label.
Result: II

(A) CC1=NN(c2ccc(C(C)(C)C)cc2)C(=O)/C1=C(/C)NNC(=O)c1ccc(C(=O)N2CCC(N(C)C)C2)s1 (centres unmarked)
(B) CC1=NN(c2ccc(C(C)(C)C)cc2)C(=O)/C1=C(/C)NNC(=O)c1ccc(C(=O)N2CC(O)C(O)C2)s1 (centres unmarked)
Q: Which of the two gives a bigger number for EC50: A or B ? Return value: the label identifying the chosen record.
Result: A
(A: 5.03 nM, B: 1.01 nM)

(a) CC1=NN(c2ccc(C(C)(C)C)cc2)C(=O)/C1=C(/C)NNC(=O)c1ccc(C(=O)NCCC(=O)O)s1
(b) CC1=NN(c2ccc(C)c(C)c2)C(=O)/C1=C(/C)NNC(=O)c1ccc(C(=O)NCc2cccnc2)s1
(c) CC1=NN(c2ccc(C(C)(C)C)cc2)C(=O)/C1=C(/C)NNC(=O)c1ccc(C(=O)NCc2ccccn2)s1
Q: Sort entries by EC50 from minimum to maximum value. // list labels; follow requested order
Result: b, c, a

(I) CC1=NN(c2ccc(C(F)(F)F)cc2)C(=O)C1=C(C)NNC(=O)c1ccc(C(=O)N2CCCC2)s1
(II) CCCNC(=O)c1ccc(C(=O)NN/C(C)=C2\C(=O)N(c3ccc(C(C)(C)C)cc3)N=C2C)s1
(III) CC1=NN(c2ccc(C(F)(F)F)cc2)C(=O)/C1=C(/C)NNC(=O)c1ccc(C(=O)N2CCC(N3CCCC3)CC2)s1
Q: Sort (3 compounds) by EC50: min first. Provide the labels, sequenced as the question asks.
Result: II, III, I

(1) CC1=NN(c2ccc(C)c(C)c2)C(=O)/C1=C(/C)NNC(=O)c1ccc(C(=O)NCc2ccncc2)s1
(2) CC1=NN(c2ccc(C(F)(F)F)cc2)C(=O)/C1=C(/C)NNC(=O)c1ccc(C(=O)N2CCC(N(C)C)C2)s1 (centres unmarked)
(3) CCN(CC)C(=O)c1ccc(C(=O)NN/C(C)=C2\C(=O)N(c3ccc(C(C)(C)C)cc3)N=C2C)s1
Q: Rank ascending by EC50. // ordering of labels required in reply
Result: 1, 2, 3

* * *

- TEST TARGET: human thrombopoietin receptor (c-mpl) (Homo sapiens)
- Construct: expressed in transfected cells
- TEST: Stimulation of proliferation of thrombopoietin-dependent cell line UT7/EPO-mpl (WST-8)
- Format: cell-based
- ASSAY SETUP: human leukemic cell line UT-7/EPO-mpl, 4 days incubation, WST-8, relative to 10 ng/mL TPO; read-out: EC50 (concentration that yields a growth rate corresponding to 50% of the growth observed in the presence of 10 ng/mL TPO) (converted)
TEST READOUT: EC50 (nM)

CC1=NN(c2ccc(C(C)(C)C)cc2)C(=O)/C1=C(/C)NNC(=O)c1ccc(C(=O)NN(C)C)s1    3.94
CC1=NN(c2ccc(C)c(C)c2)C(=O)/C1=C(/C)NNC(=O)c1ccc(C(=O)N2CC(O)C(O)C2)s1 (centres unmarked)    5.63
CC1=NN(c2ccc(Cl)c(Cl)c2)C(=O)/C1=C(/C)NNC(=O)c1ccc(C(=O)NN(C)C)s1    5.65
CC1=NN(c2ccc(C(F)(F)F)cc2)C(=O)/C1=C(/C)NNC(=O)c1ccc(C(=O)NN(C)C)s1    4.45
CC1=NN(c2ccc(Cl)c(Cl)c2)C(=O)/C1=C(/C)NNC(=O)c1ccc(C(=O)NCc2cccnc2)s1    4.6

* * *

- TEST TARGET: human thrombopoietin receptor (c-mpl) (Homo sapiens)
- Construct: expressed in transfected cells
- Sequence (P40238 26-635): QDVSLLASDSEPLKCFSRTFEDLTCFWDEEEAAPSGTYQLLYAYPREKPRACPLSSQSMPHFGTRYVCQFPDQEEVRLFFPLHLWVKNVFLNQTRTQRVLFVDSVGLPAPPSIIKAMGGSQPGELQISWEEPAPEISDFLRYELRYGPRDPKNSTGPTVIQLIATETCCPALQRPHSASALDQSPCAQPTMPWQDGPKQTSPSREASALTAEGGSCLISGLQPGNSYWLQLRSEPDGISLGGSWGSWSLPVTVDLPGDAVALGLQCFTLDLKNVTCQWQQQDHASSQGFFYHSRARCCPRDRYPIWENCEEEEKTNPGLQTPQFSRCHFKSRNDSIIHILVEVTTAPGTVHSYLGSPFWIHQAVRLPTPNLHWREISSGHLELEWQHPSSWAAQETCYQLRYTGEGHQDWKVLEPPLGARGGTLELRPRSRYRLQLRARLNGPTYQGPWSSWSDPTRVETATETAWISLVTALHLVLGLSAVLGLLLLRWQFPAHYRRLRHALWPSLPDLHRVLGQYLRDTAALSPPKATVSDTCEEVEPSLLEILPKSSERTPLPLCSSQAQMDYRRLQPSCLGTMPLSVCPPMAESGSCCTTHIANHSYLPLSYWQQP
- TEST: Stimulation of proliferation of thrombopoietin-dependent cell line UT7/EPO-mpl (WST-8)
- Assay type: cell-based
- ASSAY SETUP: human leukemic cell line UT-7/EPO-mpl, 4 days incubation, WST-8, relative to 10 ng/mL TPO; read-out: EC50 (concentration that yields a growth rate corresponding to 50% of the growth observed in the presence of 10 ng/mL TPO) (converted)
TEST READOUT: EC50 (nM)

CC1=NN(c2ccc(C(F)(F)F)cc2)C(=O)/C1=C(/C)NNC(=O)c1ccc(C(=O)N2CC(O)C(O)C2)s1 (stereo not shown) [Example 30]    5.02
CC1=NN(c2ccc(Cl)c(Cl)c2)C(=O)/C1=C(/C)NNC(=O)c1ccc(C(=O)NC(C)C)s1 [Example 37]    5.46
CC1=NN(c2ccc(C(C)(C)C)cc2)C(=O)/C1=C(/C)NNC(=O)c1ccc(C(=O)NCC(=O)O)s1 [Example 23]    6.23
CC1=NN(c2ccc(C)c(C)c2)C(=O)/C1=C(/C)NNC(=O)c1ccc(C(=O)N2CCCC2)s1 [Example 4]    7.52

(A) CC1=NN(c2ccc(C(C)(C)C)cc2)C(=O)/C1=C(/C)NNC(=O)c1ccc(C(=O)N2CCC(N3CCCC3)CC2)s1 [Example 17]
(B) COCCNC(=O)c1ccc(C(=O)NN/C(C)=C2\C(=O)N(c3ccc(C(C)(C)C)cc3)N=C2C)s1 [Example 26]
(C) COC1CN(C(=O)c2ccc(C(=O)NN/C(C)=C3\C(=O)N(c4ccc(C(C)(C)C)cc4)N=C3C)s2)CC1OC (stereo not shown) [Example 22]
Q: Hey, can you sort those molecules up there by EC50, smallest first? The reply should contain the labels ordered as requested.
Result: B, A, C
